Target: FXa (Homo sapiens)
Construct: 8 μg/mL FXa solution; purchased
Sequence (P01008 33-464): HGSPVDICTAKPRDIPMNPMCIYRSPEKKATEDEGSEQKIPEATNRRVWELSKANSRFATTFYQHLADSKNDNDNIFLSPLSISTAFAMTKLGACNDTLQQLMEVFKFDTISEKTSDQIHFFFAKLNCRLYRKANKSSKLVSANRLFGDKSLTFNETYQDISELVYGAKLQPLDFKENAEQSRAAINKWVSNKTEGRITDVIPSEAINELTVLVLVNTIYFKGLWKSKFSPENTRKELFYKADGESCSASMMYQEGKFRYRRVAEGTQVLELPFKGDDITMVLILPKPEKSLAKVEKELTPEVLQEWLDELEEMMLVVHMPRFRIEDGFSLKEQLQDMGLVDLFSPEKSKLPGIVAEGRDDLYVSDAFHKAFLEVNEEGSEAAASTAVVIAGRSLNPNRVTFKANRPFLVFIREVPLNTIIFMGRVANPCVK
Assay: AT-dependent Xa inhibitory activity assay
Type: biochemical
Conditions: in presence of AT; read-out: Drug concentration required to inhibit 50% of coagulation factor activity (IC50, ng/mL) Xa (AT)
Catalogue of compounds with associated IC50

# Compound, IC50
data = [
    ("CC(=O)NC(CO)C(OC1OC(C(=O)O)C(OC2OC(COS(=O)(=O)O)C(OS(=O)(=O)O)C(OC3OC(C(=O)O)C(OC4OC(COS(=O)(=O)O)C(OS(=O)(=O)O)C(OC5OC(C(=O)O)=CC(OC6OC(C)C(OS(=O)(=O)O)C(O)C6OS(=O)(=O)O)C5O)C4NC(C)=O)C(OC4OC(C)C(OS(=O)(=O)O)C(O)C4OS(=O)(=O)O)C3O)C2NC(C)=O)C(OC2OC(C)C(OS(=O)(=O)O)C(O)C2OS(=O)(=O)O)C1O)C(OS(=O)(=O)O)C(O)COS(=O)(=O)O (stereo not drawn)", "> 1970 nM"),
    ("CC(=O)NC1C(OC2C(C(=O)O)OC(OC3C(NC(C)=O)C(OC4C(C(=O)O)OC(OCc5ccccc5)C(O)C4OC4OC(C)C(OS(=O)(=O)O)C(O)C4OS(=O)(=O)O)OC(COS(=O)(=O)O)C3OS(=O)(=O)O)C(O)C2OC2OC(C)C(OS(=O)(=O)O)C(O)C2OS(=O)(=O)O)OC(COS(=O)(=O)O)C(OS(=O)(=O)O)C1OC1OC(C(=O)O)=CC(OC2OC(C)C(OS(=O)(=O)O)C(O)C2OS(=O)(=O)O)C1O (stereo not drawn)", "> 2210 nM"),
    ("CC(=O)NC1C(OC2C(C(=O)O)OC(OC3C(NC(C)=O)C(OC4C(C(=O)O)OC(O)C(O)C4OC4OC(C)C(OS(=O)(=O)O)C(OS(=O)(=O)O)C4O)OC(COS(=O)(=O)O)C3OS(=O)(=O)O)C(O)C2OC2OC(C)C(OS(=O)(=O)O)C(OS(=O)(=O)O)C2O)OC(COS(=O)(=O)O)C(OS(=O)(=O)O)C1OC1OC(C(=O)O)=CC(OC2OC(C)C(OS(=O)(=O)O)C(OS(=O)(=O)O)C2O)C1O (stereo not drawn)", "> 2300 nM"),
]

---

Molecular target: FIIa (Homo sapiens)
Construct: antithrombin (i.e., active coagulation factor IIa); purchased
Sequence (P01008 33-464): as above
Assay: AT-dependent IIa inhibitory activity assay
Format: biochemical
Conditions: in presence of AT; read-out: Drug concentration required to inhibit 50% of coagulation factor activity (IC50, ng/mL) Ha (AT)
pIC50: −log10 of the molar value.
Catalogue of compounds with associated pIC50

# Compound, pIC50
records = [
    ("CC(=O)NC1C(OC2C(C(=O)O)OC(OC3C(NC(C)=O)C(OC4C(C(=O)O)OC(O)C(O)C4OC4OC(C)C(OS(=O)(=O)O)C(OS(=O)(=O)O)C4O)OC(COS(=O)(=O)O)C3OS(=O)(=O)O)C(O)C2OC2OC(C)C(OS(=O)(=O)O)C(OS(=O)(=O)O)C2O)OC(COS(=O)(=O)O)C(OS(=O)(=O)O)C1OC1OC(C(=O)O)=CC(OC2OC(C)C(OS(=O)(=O)O)C(OS(=O)(=O)O)C2O)C1O (centres unmarked)", "< 5.64"),
    ("CC(=O)NC1C(OC2C(C(=O)O)OC(OC3C(NC(C)=O)C(OC4C(C(=O)O)OC(OC5C(NC(C)=O)C(OC6C(C(=O)O)OC(O)C(O)C6OC6OC(C)C(OS(=O)(=O)O)C(OS(=O)(=O)O)C6O)OC(COS(=O)(=O)O)C5OS(=O)(=O)O)C(O)C4OC4OC(C)C(OS(=O)(=O)O)C(OS(=O)(=O)O)C4O)OC(COS(=O)(=O)O)C3OS(=O)(=O)O)C(O)C2OC2OC(C)C(OS(=O)(=O)O)C(OS(=O)(=O)O)C2O)OC(COS(=O)(=O)O)C(OS(=O)(=O)O)C1OC1OC(C(=O)O)=CC(OC2OC(C)C(OS(=O)(=O)O)C(OS(=O)(=O)O)C2O)C1O (centres unmarked)", "< 5.78"),
]

---

System: plasma
Test: TT (thrombin time) clotting time
Assay type: biochemical
Readout name: Drug concentration required for multiplication of coagulation time (μg/mL) TT

# Compound, System, Result
data = [
    ("CC(=O)NC(CO)C(OC1OC(C(=O)O)C(OC2OC(COS(=O)(=O)O)C(OS(=O)(=O)O)C(OC3OC(C(=O)O)C(OC4OC(COS(=O)(=O)O)C(OS(=O)(=O)O)C(OC5OC(C(=O)O)=CC(OC6OC(C)C(OS(=O)(=O)O)C(O)C6OS(=O)(=O)O)C5O)C4NC(C)=O)C(OC4OC(C)C(OS(=O)(=O)O)C(O)C4OS(=O)(=O)O)C3O)C2NC(C)=O)C(OC2OC(C)C(OS(=O)(=O)O)C(O)C2OS(=O)(=O)O)C1O)C(OS(=O)(=O)O)C(O)COS(=O)(=O)O (stereo not drawn) [Compound A2]", "plasma", "# (>128 μg/mL)"),
    ("CC(=O)NC1C(OC2C(C(=O)O)OC(OC3C(NC(C)=O)C(OC4C(C(=O)O)OC(OC5C(NC(C)=O)C(OC6C(C(=O)O)OC(O)C(O)C6OC6OC(C)C(OS(=O)(=O)O)C(OS(=O)(=O)O)C6O)OC(COS(=O)(=O)O)C5OS(=O)(=O)O)C(O)C4OC4OC(C)C(OS(=O)(=O)O)C(OS(=O)(=O)O)C4O)OC(COS(=O)(=O)O)C3OS(=O)(=O)O)C(O)C2OC2OC(C)C(OS(=O)(=O)O)C(OS(=O)(=O)O)C2O)OC(COS(=O)(=O)O)C(OS(=O)(=O)O)C1OC1OC(C(=O)O)=CC(OC2OC(C)C(OS(=O)(=O)O)C(OS(=O)(=O)O)C2O)C1O (stereo not drawn) [Compound B8]", "plasma", "# (>128 μg/mL)"),
    ("COC(=O)C1=CC(OC2OC(C)C(OS(=O)(=O)O)C(O)C2OS(=O)(=O)O)C(O)C(OC2C(NC(C)=O)C(OC3C(C(=O)OC)OC(OC4C(NC(C)=O)C(OC5C(C(=O)OC)OC(OCc6ccccc6)C(O)C5OC5OC(C)C(OS(=O)(=O)O)C(O)C5OS(=O)(=O)O)OC(COS(=O)(=O)O)C4OS(=O)(=O)O)C(O)C3OC3OC(C)C(OS(=O)(=O)O)C(O)C3OS(=O)(=O)O)OC(COS(=O)(=O)O)C2OS(=O)(=O)O)O1 (stereo not drawn) [Compound B10]", "plasma", "# (>128 μg/mL)"),
]

---

Biological target: intrinsic factor Xase (Homo sapiens)
Construct: 60 nM FIXa; purchased
Sequence (P00740 47-191 limits assumed): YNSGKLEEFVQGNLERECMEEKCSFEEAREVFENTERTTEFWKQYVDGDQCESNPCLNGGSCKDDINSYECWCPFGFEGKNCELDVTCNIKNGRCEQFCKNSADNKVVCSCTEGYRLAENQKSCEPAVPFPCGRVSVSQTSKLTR
Sequence (P00740 227-461 limits assumed): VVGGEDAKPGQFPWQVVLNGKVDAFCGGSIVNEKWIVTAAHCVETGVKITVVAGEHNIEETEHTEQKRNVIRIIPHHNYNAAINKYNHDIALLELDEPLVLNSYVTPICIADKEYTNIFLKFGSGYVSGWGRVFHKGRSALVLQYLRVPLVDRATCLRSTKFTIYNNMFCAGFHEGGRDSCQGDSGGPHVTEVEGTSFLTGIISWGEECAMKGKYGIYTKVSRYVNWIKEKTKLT
Test: Xase inhibitory activity assay
Type: biochemical
Conditions: read-out: Drug concentration required to inhibit 50% of coagulation factor activity (IC50, ng/mL) Xase (converted)
Readout name: IC50

# Compound, Result
rows = [
    ("COC(=O)C1=CC(OC2OC(C)C(OS(=O)(=O)O)C(O)C2OS(=O)(=O)O)C(O)C(OC2C(NC(C)=O)C(OC3C(C(=O)OC)OC(OC4C(NC(C)=O)C(OC5C(C(=O)OC)OC(OC(C(CO)NC(C)=O)C(OS(=O)(=O)O)C(O)COS(=O)(=O)O)C(O)C5OC5OC(C)C(OS(=O)(=O)O)C(O)C5OS(=O)(=O)O)OC(COS(=O)(=O)O)C4OS(=O)(=O)O)C(O)C3OC3OC(C)C(OS(=O)(=O)O)C(O)C3OS(=O)(=O)O)OC(COS(=O)(=O)O)C2OS(=O)(=O)O)O1 (stereo not shown)", "26.5 nM"),
]

---

Biological target: FIIa (Homo sapiens)
Construct: antithrombin (i.e., active coagulation factor IIa); purchased
Assay: AT-dependent IIa inhibitory activity assay
Format: biochemical
Details: in presence of AT; read-out: Drug concentration required to inhibit 50% of coagulation factor activity (IC50, ng/mL) Ha (AT)
pIC50: −log10 of the molar value.
Readout name: pIC50

# Molecule, Result
rows = [
    ("CC(=O)N[C@H]1[C@H](O[C@H]2[C@H](O[C@@H]3O[C@@H](C)[C@@H](OS(=O)(=O)O)[C@@H](OS(=O)(=O)O)[C@@H]3O)[C@@H](O)C(O)O[C@@H]2C(=O)O)O[C@H](COS(=O)(=O)O)[C@H](OS(=O)(=O)O)[C@@H]1O[C@@H]1OC(C(=O)O)=C[C@H](O[C@@H]2O[C@@H](C)[C@@H](OS(=O)(=O)O)[C@@H](OS(=O)(=O)O)[C@@H]2O)[C@H]1O (stereo partly drawn)", "< 5.42"),
    ("COCC(NC(C)=O)C(OC1OC(C(=O)OC)C(OC2OC(COS(=O)(=O)O)C(OS(=O)(=O)O)C(OC3OC(C(=O)OC)C(OC4OC(COS(=O)(=O)O)C(OS(=O)(=O)O)C(OC5OC(C(=O)OC)=CC(OC6OC(C)C(OS(=O)(=O)O)C(O)C6OS(=O)(=O)O)C5O)C4NC(C)=O)C(OC4OC(C)C(OS(=O)(=O)O)C(O)C4OS(=O)(=O)O)C3O)C2NC(C)=O)C(OC2OC(C)C(OS(=O)(=O)O)C(O)C2OS(=O)(=O)O)C1O)C(OS(=O)(=O)O)C(O)COS(=O)(=O)O (stereo not drawn)", "< 5.72"),
    ("CC(=O)N[C@H]1[C@H](O[C@@H]([C@H](O[C@@H]2O[C@@H](C)[C@@H](OS(=O)(=O)O)[C@@H](OS(=O)(=O)O)[C@@H]2O)[C@@H](O)CO)[C@H](O)C(=O)O)O[C@H](COS(=O)(=O)O)[C@H](OS(=O)(=O)O)[C@@H]1O[C@@H]1OC(C(=O)O)=C[C@H](O[C@@H]2O[C@@H](C)[C@@H](OS(=O)(=O)O)[C@@H](OS(=O)(=O)O)[C@@H]2O)[C@H]1O", "< 5.42"),
    ("CC(=O)NC1C(OC2C(C(=O)O)OC(OC3C(NC(C)=O)C(OC4C(C(=O)O)OC(OC5C(NC(C)=O)C(OC(C(O)C(=O)O)C(OC6OC(C)C(OS(=O)(=O)O)C(OS(=O)(=O)O)C6O)C(O)CO)OC(COS(=O)(=O)O)C5OS(=O)(=O)O)C(O)C4OC4OC(C)C(OS(=O)(=O)O)C(OS(=O)(=O)O)C4O)OC(COS(=O)(=O)O)C3OS(=O)(=O)O)C(O)C2OC2OC(C)C(OS(=O)(=O)O)C(OS(=O)(=O)O)C2O)OC(COS(=O)(=O)O)C(OS(=O)(=O)O)C1OC1OC(C(=O)O)=CC(OC2OC(C)C(OS(=O)(=O)O)C(OS(=O)(=O)O)C2O)C1O (stereo not drawn)", "< 5.78"),
    ("CC1OC(OC2C=C(C(=O)O)OC(OC3C(NS(=O)(=O)O)C(OC4C(C(=O)O)OC(OC5C(NS(=O)(=O)O)C(OC6C(C(=O)O)OC(OC(C(CO)NS(=O)(=O)O)C(OS(=O)(=O)O)C(O)COS(=O)(=O)O)C(O)C6OC6OC(C)C(OS(=O)(=O)O)C(O)C6OS(=O)(=O)O)OC(COS(=O)(=O)O)C5OS(=O)(=O)O)C(O)C4OC4OC(C)C(OS(=O)(=O)O)C(O)C4OS(=O)(=O)O)OC(COS(=O)(=O)O)C3OS(=O)(=O)O)C2O)C(OS(=O)(=O)O)C(O)C1OS(=O)(=O)O (stereo not drawn)", "< 5.72"),
    ("COC(=O)C1=CC(OC2OC(C)C(OS(=O)(=O)O)C(O)C2OS(=O)(=O)O)C(O)C(OC2C(NC(C)=O)C(OC3C(C(=O)OC)OC(OC4C(NC(C)=O)C(OC5C(C(=O)OC)OC(OCc6ccccc6)C(O)C5OC5OC(C)C(OS(=O)(=O)O)C(O)C5OS(=O)(=O)O)OC(COS(=O)(=O)O)C4OS(=O)(=O)O)C(O)C3OC3OC(C)C(OS(=O)(=O)O)C(O)C3OS(=O)(=O)O)OC(COS(=O)(=O)O)C2OS(=O)(=O)O)O1 (stereo not drawn)", "< 5.66"),
    ("CC(=O)NC1C(OC2C(C(=O)O)OC(OC3C(NC(C)=O)C(OC(C(O)C(=O)O)C(OC4OC(C)C(OS(=O)(=O)O)C(OS(=O)(=O)O)C4O)C(O)CO)OC(COS(=O)(=O)O)C3OS(=O)(=O)O)C(O)C2OC2OC(C)C(OS(=O)(=O)O)C(OS(=O)(=O)O)C2O)OC(COS(=O)(=O)O)C(OS(=O)(=O)O)C1OC1OC(C(=O)O)=CC(OC2OC(C)C(OS(=O)(=O)O)C(OS(=O)(=O)O)C2O)C1O (stereo not drawn)", "< 5.64"),
    ("CC(=O)NC1C(OC2C(C(=O)O)OC(OC3C(NC(C)=O)C(OC4C(C(=O)O)OC(OCc5ccccc5)C(O)C4OC4OC(C)C(OS(=O)(=O)O)C(O)C4OS(=O)(=O)O)OC(COS(=O)(=O)O)C3OS(=O)(=O)O)C(O)C2OC2OC(C)C(OS(=O)(=O)O)C(O)C2OS(=O)(=O)O)OC(COS(=O)(=O)O)C(OS(=O)(=O)O)C1OC1OC(C(=O)O)=CC(OC2OC(C)C(OS(=O)(=O)O)C(O)C2OS(=O)(=O)O)C1O (stereo not drawn)", "< 5.66"),
    ("COC(=O)C1=CC(OC2OC(C)C(OS(=O)(=O)O)C(O)C2OS(=O)(=O)O)C(O)C(OC2C(NC(C)=O)C(OC3C(C(=O)OC)OC(OC4C(NC(C)=O)C(OC5C(C(=O)OC)OC(OC(C(CO)NC(C)=O)C(OS(=O)(=O)O)C(O)COS(=O)(=O)O)C(O)C5OC5OC(C)C(OS(=O)(=O)O)C(O)C5OS(=O)(=O)O)OC(COS(=O)(=O)O)C4OS(=O)(=O)O)C(O)C3OC3OC(C)C(OS(=O)(=O)O)C(O)C3OS(=O)(=O)O)OC(COS(=O)(=O)O)C2OS(=O)(=O)O)O1 (stereo not drawn)", "< 5.71"),
]
